This collection of values is drawn from patent US3941842A.

# Test system: Musca domestica Snaidm
# Experiment Description: Topical LD50 to adult female SNAIDM houseflies
# Test Settings: SNAIDM strain; synergized with piperonyl butoxide; topical
Measured Property: Topical LD50, Musca domestica Snaidm, with pb (μg per g)
Report as a plain number; the unit μg per g is understood.

Looking up COc1ccc(NC(c2ccc(Cl)cc2)C(Cl)(Cl)Cl)cc1 (centres unmarked) , I see its Topical LD50, Musca domestica Snaidm, with pb listed as 6.5

Lab book: Topical LD50, Musca domestica Snaidm, with pb of COc1ccc(C(Nc2ccc(C3CCCCC3)cc2)C(Cl)(Cl)Cl)cc1 (centres unmarked) noted as 48

Sure, the documented Topical LD50, Musca domestica Snaidm, with pb for COc1ccc(NC(c2ccc(C)cc2)C(Cl)(Cl)Cl)cc1 (centres unmarked) is 8.5

For reference, reported Topical LD50, Musca domestica Snaidm, with pb for COc1ccc(C(Nc2ccc(C)cc2)C(Cl)(Cl)Cl)cc1 (centres unmarked) stands at 8.5

Record COc1ccc(C(Nc2ccc(Cl)cc2)C(Cl)(Cl)Cl)cc1 (centres unmarked) . Reported Topical LD50, Musca domestica Snaidm, with pb: 10.5

Form field Topical LD50, Musca domestica Snaidm, with pb, entry Cc1ccc(NC(c2ccc(C)cc2)C(Cl)(Cl)Cl)cc1 (centres unmarked) : 5.0

Consider CCCCOc1ccc(C(Nc2ccc(OC)cc2)C(Cl)(Cl)Cl)cc1 (centres unmarked) . Its measured Topical LD50, Musca domestica Snaidm, with pb is 12.5

response.value for CCOc1ccc(C(Nc2ccccc2OCC)C(Cl)(Cl)Cl)c(OCC)c1 (centres unmarked) (field: Topical LD50, Musca domestica Snaidm, with pb) = 500

Just so you know, measured Topical LD50, Musca domestica Snaidm, with pb for CCOc1ccc(NC(c2ccc(OC)cc2)C(Cl)(Cl)Cl)cc1 (centres unmarked) came out at 3.9

Just so you know, measured Topical LD50, Musca domestica Snaidm, with pb for CCOc1ccc(NC(c2ccc(Cl)cc2)C(Cl)(Cl)Cl)cc1 (centres unmarked) came out at 4.1

// CN(C)c1ccc(C(Nc2ccc([N+](=O)[O-])cc2)C(Cl)(Cl)Cl)cc1 (centres unmarked) : Topical LD50, Musca domestica Snaidm, with pb value = 120

For CCOc1ccc(NC(c2ccc(OCC)cc2)C(Cl)(Cl)Cl)cc1 (centres unmarked) the molecule record lists Topical LD50, Musca domestica Snaidm, with pb as 4.2

# Topical LD50, Musca domestica Snaidm, with pb (molecule: COc1ccc(C(Nc2ccc(C)c(C)c2)C(Cl)(Cl)Cl)cc1 (centres unmarked) ) is 6.5

Entry Cc1ccc(C(Nc2ccc(Cl)cc2)C(Cl)(Cl)Cl)cc1 (centres unmarked) , Topical LD50, Musca domestica Snaidm, with pb reported as 21.0

According to the records, this molecule COc1ccc(NC(c2ccc(OC)cc2)C(Cl)(Cl)Cl)cc1 (centres unmarked) displays Topical LD50, Musca domestica Snaidm, with pb of 5.5

Given item Cc1ccc(NC(c2ccc(Cl)cc2)C(Cl)(Cl)Cl)cc1 (centres unmarked) , the value recorded as its Topical LD50, Musca domestica Snaidm, with pb is 16

Recorded Topical LD50, Musca domestica Snaidm, with pb (molecule CCOc1ccc(NC(c2ccc3c(c2)OCO3)C(Cl)(Cl)Cl)cc1 (centres unmarked) ): 3.8
